# Tested on: PMA-differentiated THP-1 cells
# test-summary: IL-1β production in PMA-differentiated THP-1 cells stimulated with gramicidin (hTHP-1 assay containing 2% fetal bovine serum; Procedures 1 and 2)
# Type: cell-based, human
# details: Homo sapiens, THP-1, Table B2; 2% fetal bovine serum; class symbols; read-out: hTHP-1 IC50
pIC50: −log10 of the molar value.
reported-property: pIC50

Example results:
[[record]]
compound = "CC(C)(O)c1sc(S(N)(=O)=NC(=O)Nc2c3c(nc4c2CCC4)CCC3)cc1F (centres unmarked) [Compound 678]"
experimental_system = "PMA-differentiated THP-1 cells"
result = "5.30 to 6.00"

[[record]]
compound = "CC(C)(O)c1ccnc(S(N)(=O)=NC(=O)Nc2c3c(nc4c2CCC4(C)C)CCC3)c1 (centres unmarked) [Compound 620]"
experimental_system = "PMA-differentiated THP-1 cells"
result = "4.52 to 5.30"

[[record]]
compound = "CCc1c(C(F)(F)F)nc2c(c1NC(=O)N=S(N)(=O)c1cnc(C(C)(C)O)s1)CCC2 (centres unmarked) [Compound 610]"
experimental_system = "PMA-differentiated THP-1 cells"
result = "4.52 to 5.30"

[[record]]
compound = "CC(C)c1nc2c(cc1NC(=O)N=S(N)(=O)c1cnc(C(C)(C)O)s1)CCC2 (centres unmarked) [Compound 601]"
experimental_system = "PMA-differentiated THP-1 cells"
result = "4.52 to 5.30"

[[record]]
compound = "Cc1c(C(F)(F)F)nc2c(c1NC(=O)N=S(N)(=O)c1nn(C(F)F)cc1F)CCC2 (centres unmarked) [Compound 717]"
experimental_system = "PMA-differentiated THP-1 cells"
result = "6.00 to 6.70"


// query Recorded pIC50 for CC(C)(O)c1sc(S(N)(=O)=NC(=O)Nc2c3c(nc4c2CCC42CC2)CCC3)cc1F (centres unmarked) [Compound 614] , please?
// result 6.00 to 6.70

// query Further, for CC(C)(O)c1cc(S(N)(=O)=NC(=O)Nc2c3c(nc4c2CCC4(C)C)CCC3)nn1-c1ccccc1 (centres unmarked) [Compound 663] ?
// result 5.30 to 6.00

// query Further, for COC(C)(C)c1nc(CO)c(S(N)(=O)=NC(=O)Nc2c3c(nc4c2CCC4(C)C)CCC3)s1 (centres unmarked) [Compound 648] ?
// result 5.30 to 6.00

====

Recorded IC50 by entry
# Test system: PMA-differentiated THP-1 cells
# test-summary: IL-1β production in PMA-differentiated THP-1 cells stimulated with gramicidin (hTHP-1 assay containing 2% fetal bovine serum; Procedures 1 and 2)
# Assay type: cell-based, human
# details: Homo sapiens, THP-1, Table B2; 2% fetal bovine serum; class symbols; read-out: hTHP-1 IC50

[[record]]
molecule = "CCc1cc(F)c(S(N)(=O)=NC(=O)Nc2c3c(nc4c2CC[C@H]4C)CCC3)s1 (stereo partly shown) [Compound 720c]"
reported_property = "IC50"
result = "0.2 to 1 µM"

[[record]]
molecule = "CC(C)c1nc(CO)c(S(N)(=O)=NC(=O)Nc2c3c(nc4c2CCC4(C)C)CCC3)s1 (stereo not shown)"
reported_property = "IC50"
result = "1 to 5 µM"

[[record]]
molecule = "COCCOC[C@@](C)(O)c1ncc(S(N)(=O)=NC(=O)Nc2c3c(nc4c2CCC4(C)C)CCC3)s1 (stereo partly shown)"
reported_property = "IC50"
result = "1 to 5 µM"


// query Recorded IC50 for Cc1cc(C(C)(C)O)sc1S(N)(=O)=NC(=O)Nc1c2c(nc3c1CCC3)CCC2 (stereo not shown) [Compound 695] , please?
// result 5 to 30 µM

// query Further, for CC(C)n1cc(Cl)c(S(N)(=O)=NC(=O)Nc2c3c(nc4c2CCC4)CCC3)n1 (single isomer, unassigned) [Compound 694b] ?
// result 1 to 5 µM

// query Further, for Cc1nc2c(c(NC(=O)N=S(N)(=O)c3cc(C(C)(C)O)cs3)c1C(C)C)CCC2 (single isomer, unassigned) [Compound 622b] ?
// result 5 to 30 µM

// query Further, for CC(C)(O)c1ccc(S(N)(=O)=NC(=O)Nc2c3c(nc4c2CCC4(C)C)CCC3)cn1 (single isomer, unassigned) [Compound 673a] ?
// result 1 to 5 µM

// query Further, for Cc1c(C(F)(F)F)nc2c(c1NC(=O)N=[S@](N)(=O)c1ccn(C)n1)CCC2 (single isomer, unassigned) [Compound 730a] ?
// result 5 to 30 µM

// query Further, for CC(C)(O)c1cc(C#N)cc(S(N)(=O)=NC(=O)Nc2c3c(nc4c2CCC4(C)C)CCC3)c1 (single isomer, unassigned) [Compound 674b] ?
// result 1 to 5 µM

====

# Test system: PMA-differentiated THP-1 cells
# test-summary: hTHP-1 assay containing 10% fetal bovine serum (IL-1β production, Tables B5 and B6)
# Type: cell-based, human
# details: read-out: hTHP-1 IC50 in 10% FBS; hTHP-1 assay containing 10% fetal bovine serum; Table B5; listed as 840
reported-property: IC50

// query Recorded IC50 for Cc1c(C(F)(F)F)nc2c(c1NC(=O)N=S(N)(=O)c1scc(C(C)(C)O)c1F)CCC2 (single isomer, unassigned) [Compound 1108a] , please?
// result 40 to 200 nM

====

# Test system: PMA-differentiated THP-1 cells
# test-summary: IL-1β production in PMA-differentiated THP-1 cells stimulated with gramicidin (hTHP-1 assay containing 2% fetal bovine serum; Procedures 1 and 2)
# Format: cell-based, human
# details: Homo sapiens, THP-1, Table B2; 2% fetal bovine serum; class symbols; read-out: hTHP-1 IC50
pIC50: −log10 of the molar value.
Recorded pIC50 by entry

Example results:
[[record]]
molecule = "CC(C)n1cc(S(N)(=O)=NC(=O)Nc2c3c(nc4c2CCC4(C)C)CCC3)c(CO)n1 (single isomer, unassigned) [Compound 653a]"
result = "4.52 to 5.30"

[[record]]
molecule = "CCn1ccc([S@](N)(=O)=NC(=O)Nc2c3c(nc4c2CCC42CC2)CCC3)n1 [Compound 604b]"
result = "6.00 to 6.70"

[[record]]
molecule = "CC(O)c1nc(C(C)(C)O)sc1S(=N)(=O)NC(=O)Nc1c2c(nc3c1CCC3)CCC2 (single isomer, unassigned) [Compound 643a]"
result = "4.52 to 5.30"

[[record]]
molecule = "CCc1csc(S(N)(=O)=NC(=O)Nc2c3c(nc4c2CC[C@H]4C)CCC3)c1 (some centres unmarked) [Compound 721c]"
result = "6.70 to 7.40"

[[record]]
molecule = "CC(C)(O)c1cnc(S(N)(=O)=NC(=O)Nc2c3c(nc4c2CCC4(C)C)CCC3)s1 (centres unmarked) [Compound 686]"
result = "6.00 to 6.70"

[[record]]
molecule = "CC(C)n1cc(CO)c(S(N)(=O)=NC(=O)Nc2c3c(nc4c2CCC4(C)C)CCC3)n1 (centres unmarked) [Compound 682]"
result = "5.30 to 6.00"

[[record]]
molecule = "CCc1c(C2CC2)nc2c(c1NC(=O)N=S(N)(=O)c1cnc(C(C)(C)O)s1)CCC2 (centres unmarked) [Compound 675]"
result = "5.30 to 6.00"

[[record]]
molecule = "CC(C)c1nc2c(cc1NC(=O)N=[S@@](N)(=O)c1cnc(C(C)(C)O)s1)CCC2 [Compound 601b]"
result = "4.52 to 5.30"

[[record]]
molecule = "CC(C)(O)c1sc(S(N)(=O)=NC(=O)Nc2c3c(nc4c2CCC4)CCC3)cc1Cl (centres unmarked) [Compound 688]"
result = "5.30 to 6.00"

[[record]]
molecule = "C[C@@H]1CCc2c1nc1c(c2NC(=O)N=S(N)(=O)c2cc(F)c(C(C)(C)O)s2)CCC1 (some centres unmarked) [Compound 616]"
result = "6.70 to 7.40"


// query What measured pIC50 is associated with CCn1cc(Cl)c(S(N)(=O)=NC(=O)Nc2c(C)c(C(F)(F)F)nc3c2CCC3)n1 (centres unmarked) [Compound 729] on PMA-differentiated THP-1 cells?
// result 6.00 to 6.70

// query Further, for CC(C)(O)c1cc(F)c([S@@](N)(=O)=NC(=O)Nc2c3c(nc(C4CC4)c2C2CC2)CCC3)s1 [Compound 727a] ?
// result 5.30 to 6.00

// query Further, for C[C@](O)(CO)c1cc(F)c(S(N)(=O)=NC(=O)Nc2c3c(nc4c2CCC42CC2)CCC3)s1 (some centres unmarked) [Compound 716a] ?
// result 6.70 to 7.40

====

# Tested on: PMA-differentiated THP-1 cells
# test-summary: hTHP-1 assay containing 10% fetal bovine serum (IL-1β production, Tables B5 and B6)
# Format: cell-based, human
# details: read-out: hTHP-1 IC50 in 10% FBS; hTHP-1 assay containing 10% fetal bovine serum; Table B5; listed as 795
reported-property: IC50

// query Recorded IC50 for CCn1cc(F)c(S(N)(=O)=NC(=O)Nc2c(C)c(C(F)(F)F)nc3c2C(C)CC3)n1 (stereo not shown) , please?
// result 1000 to 5000 nM
